# Test system: NIH3T3
# TEST_PROTOCOL: Compound tested for the impact on expression of luciferase in transfected NIH3T3 cells (RLU = luciferase activity in relative light units (RLU)/10 s for 10E3 plated cells)
# Format: functional, Mus musculus

| LINE_NOTATION | RLU |
| --- | --- |
| CCCCCCCCCCCCCCCCCCN(CCCCCCCCCCCCCCCCCC)C(=O)CNC(=O)CNCCN(CCN)CCN | 20000000 |
| CCCCCCCCCCCCCCCCCCN(CCCCCCCCCCCCCCCCCC)C(=O)CNCCCN(CCCN)CCCCN(CCCN)CCCN | 59000000 |
| CCCCCCCCCCCCCCCCCCN(CCCCCCCCCCCCCCCCCC)C(=O)CNCCCNCCCCNCCCN | 2000000 |
| CCCCCCCCCCCCCCCCCCN(CCCCCCCCCCCCCCCCCC)C(=O)CNCCN(CCN)CCN | 1500000 |
| CCCCCCCCCCCCCCCCCCN(CCCCCCCCCCCCCCCCCC)C(=O)CNC(=O)CNCCCNCCCCNCCCN | 54000000 |
